- STUDY_TARGET: recombinant human MGAT2 (Homo sapiens (Human), UniProt Q3SYC2)
- Sequence (Q3SYC2 whole entry): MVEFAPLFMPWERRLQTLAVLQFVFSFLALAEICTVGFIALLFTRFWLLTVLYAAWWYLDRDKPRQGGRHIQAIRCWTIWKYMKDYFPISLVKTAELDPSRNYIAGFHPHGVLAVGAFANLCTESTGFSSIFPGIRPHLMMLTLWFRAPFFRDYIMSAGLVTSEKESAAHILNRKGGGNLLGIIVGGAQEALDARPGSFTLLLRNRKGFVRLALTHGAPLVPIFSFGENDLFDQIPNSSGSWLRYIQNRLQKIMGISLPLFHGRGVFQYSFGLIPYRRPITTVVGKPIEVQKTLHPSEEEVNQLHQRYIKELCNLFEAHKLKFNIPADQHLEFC
- TEST_NAME: Measurement of human MGAT2 inhibitory activity
- Type: biochemical
- MEASUREMENT_PARAMETERS: read-out: IC50 (concentration exhibiting 50% enzyme inhibition), Table 52
Property: IC50; scope: individual compounds
Please answer in the form of a number followed by its unit of measurement.

>>> recorded_result("CN(C)CCn1nc2c(c1NC(=O)CS(C)(=O)=O)C(=O)N[C@@]1(CCc3cc(OCCCC(F)(F)F)ccc31)C2")
"0.44 µM"
>>> recorded_result("CS(=O)(=O)CC(=O)Nc1c2c(nn1CC1CCOCC1)C[C@]1(CCc3cc(OCCCC(F)(F)F)ccc31)NC2=O")
"0.27 µM"
>>> recorded_result("CS(=O)(=O)CC(=O)Nc1nn(CCC2CC2)c2c1C(=O)N[C@@]1(CCc3cc(OCCCC(F)(F)F)ccc31)C2")
"0.5 µM"
>>> recorded_result("Cn1cc(CC(=O)Nc2c3c(nn2CCC2CC2)C[C@]2(CCc4cc(OCCCC(F)(F)F)ccc42)NC3=O)cn1")
"0.175 µM"
>>> recorded_result("CS(=O)(=O)CC(=O)Nc1c2c(nn1CCC1CC1)C[C@@]1(CCc3cc(N4CC(C(F)(F)F)C4)ccc31)NC2=O")
"0.0071 µM"

Enquiry: Please give the documented IC50 of `CS(=O)(=O)CC(=O)Nc1c2c(nn1-c1ccc(C(F)(F)F)cc1)C[C@]1(CCc3cc(OCC(F)(F)F)ccc31)NC2=O`
Return: 0.0051 µM

Enquiry: Please give the documented IC50 of `O=C(CC(F)(F)F)NCc1c2c(nn1CCC1CC1)C[C@]1(CCc3cc(OCC(F)(F)F)ccc31)NC2=O`
Return: 0.0056 µM

Enquiry: Please give the documented IC50 of `Cn1cc(C(=O)Nc2c3c(nn2CCC2CC2)C[C@]2(CCc4cc(OCC(F)(F)F)ccc42)NC3=O)nn1`
Return: 0.48 µM

Enquiry: Please give the documented IC50 of `O=C(Nc1c2c(nn1CCC1CC1)C[C@]1(CCc3cc(OCC(F)(F)F)ccc31)NC2=O)c1cncnc1`
Return: 0.035 µM

Enquiry: Please give the documented IC50 of `O=C1N[C@@]2(CCc3cc(OCC(F)(F)F)ccc32)Cc2nn(CCC3CC3)c(CNS(=O)(=O)C3CCC3)c21`
Return: 0.51 µM

Enquiry: Please give the documented IC50 of `CS(=O)(=O)CC(=O)Nc1c2c(nn1CCCC(F)(F)F)C[C@]1(CCc3cc(OCC(F)(F)F)ccc31)NC2=O`
Return: 0.0061 µM

Enquiry: Please give the documented IC50 of `CS(=O)(=O)CC(=O)Nc1nn(CCn2cccn2)c2c1C(=O)N[C@@]1(CCc3cc(OCCCC(F)(F)F)ccc31)C2`
Return: 0.97 µM

Enquiry: Please give the documented IC50 of `CS(=O)(=O)CC(=O)Nc1c2c(nn1-c1cc(Cl)cc(Cl)c1)C[C@]1(CCc3cc(OCC(F)(F)F)ccc31)NC2=O`
Return: 0.0405 µM

Enquiry: Please give the documented IC50 of `Cc1cc(C(=O)Nc2c3c(nn2CCC2CC2)C[C@]2(CCc4cc(OCC(F)(F)F)ccc42)NC3=O)n(C)n1`
Return: 0.62 µM

Enquiry: Please give the documented IC50 of `COc1cccc(C(=O)Nc2c3c(nn2CCC2CC2)C[C@]2(CCc4cc(OCCCC(F)(F)F)ccc42)NC3=O)c1`
Return: 0.16 µM

Enquiry: Please give the documented IC50 of `CS(=O)(=O)CC(=O)Nc1c2c(nn1-c1ccc(Cl)cn1)C[C@]1(CCc3cc(OCC(F)(F)F)ccc31)NC2=O`
Return: 0.001 µM

Enquiry: Please give the documented IC50 of CS(=O)(=O)CC(=O)Nc1c2c(nn1CC1CCCO1)C[C@]1(CCc3cc(OCCCC(F)(F)F)ccc31)NC2=O (stereo partly drawn)
Return: 0.025 µM

Enquiry: Please give the documented IC50 of `CS(=O)(=O)CC(=O)Nc1c2c(nn1CCOCC(F)F)C[C@]1(CCc3cc(OCCCC(F)(F)F)ccc31)NC2=O`
Return: 0.013 µM

Enquiry: Please give the documented IC50 of `Cc1ccc(-n2nc3c(c2NC(=O)CS(C)(=O)=O)C(=O)N[C@]2(CCc4cc(OCC(F)(F)F)ccc42)C3)cc1`
Return: 0.0046 µM
